protocol: VP16 transactivation inhibitors, counter-screen for SRC1 inhibitor project, cell-based, luminescence, high throughput (AID 588824)
condition: cell-based VP16 transactivation luciferase luminescence; at 3.6 µM
Active and inactive are the calls of the source. Cut-off read from the data, not from the text of the source: active = inhibition above about 25%; inactive = the rest.
Classes used: T (active), F (inactive)

- compound: "Cc1nnc(N2CCCC(C(=O)NCc3ccc(OC(C)C)cc3)C2)c2nn(-c3ccccc3)c(C)c12 (centres undefined)"
  class_assignment: "F"
- compound: "CCC(=O)NC(c1ccc(C)cc1)c1ccc2cccnc2c1O (centres undefined)"
  class_assignment: "T"
- compound: "CC(NC(=O)COC(=O)c1cccs1)c1ccccc1 (centres undefined)"
  class_assignment: "F"
- compound: "COc1ccc(C(=O)Cn2c(Br)nc3c2c(=O)n(C)c(=O)n3C)cc1"
  class_assignment: "F"
- compound: "COC1C(OC(=O)/C=C/C=C/C=C/C=C/C(=O)O)CCC2(CO2)C1C1(C)OC1CC=C(C)C (centres undefined) (tested in a mixture with another compound)"
  class_assignment: "F"
- compound: "COc1cc(/C=C/C(=O)Nc2ccc(OC)c(S(=O)(=O)N3CCOCC3)c2)ccc1OCC#N"
  class_assignment: "T"
- compound: "CCc1ccc(CNC(=O)C2CCCN(S(=O)(=O)N(CC)c3ccccc3)C2)cc1 (centres undefined)"
  class_assignment: "F"
- compound: "CC(C)(C)c1ccc(-c2cn(-c3ccc(Br)cc3)c3[n+]2CCCS3)cc1"
  class_assignment: "T"
- compound: "Nc1ccn(C2OC(CO)C(O)C2O)c(=O)n1 (centres undefined)"
  class_assignment: "F"

---

protocol: StAR promoter reporter inhibitors, counter-screen for LRH-1 inverse agonist project, cell-based, luminescence, high throughput (AID 651611)
condition: StAR promoter luciferase reporter counterscreen, at 3.6 µM, stronger effect = higher value
Class key for inhibition values: band A: < 10%; band B: ≥ 10% and < 40%; band C: ≥ 40%

- smiles_code: "Cc1cccc(NC(=O)COC(=O)CN2C(=O)c3ccccc3C2=O)c1C"
  class_assignment: "band A"
- smiles_code: "Cc1scc(C(=O)N/N=C/c2ccc([N+](=O)[O-])o2)c1C"
  class_assignment: "band C"
- smiles_code: "O=C(CN1CCN(c2ccc([N+](=O)[O-])cc2)CC1)c1ccccc1"
  class_assignment: "band A"
- smiles_code: "NC1=CC(=O)C(=O)c2ccccc21"
  class_assignment: "band B"
- smiles_code: "CC(=O)CSc1nc(N)c(C#N)c(-c2cccs2)c1C#N"
  class_assignment: "band B"
- smiles_code: "COc1cccc(-c2cc(C(=O)Nc3ccncc3)c3ccccc3n2)c1"
  class_assignment: "band A"
- smiles_code: "COc1cccc(-c2nnc3n2N=C(C(C)(C)C)CS3)c1"
  class_assignment: "band C"
- smiles_code: "C=CCn1c(C)cc(C2=NNC(=NCC)SC2)c1C"
  class_assignment: "band C"
- smiles_code: "CCOC(=O)c1cccc(C2=CC(=O)CC(C)(C)C2)c1"
  class_assignment: "band A"
- smiles_code: "COc1ccc(-c2nc(C(N)=O)c3[nH]c(=O)n(-c4cccc(Cl)c4)c3n2)cc1OC"
  class_assignment: "band B"

---

protocol: VP16 transactivation inhibitors, counter-screen for SRC1 inhibitor project, cell-based, luminescence, high throughput (AID 588824)
condition: cell-based VP16 transactivation luciferase luminescence; at 3.6 µM
Active and inactive are the calls of the source. No stated cut-off is given here; in the data, active means inhibition above about 25%; inactive means the rest.
Classes used: active, inactive

- compound: "COC(=O)c1cc(=O)n(Cc2ccco2)c(=Nc2ccc(F)c(Cl)c2)s1"
  class_assignment: "inactive"
- compound: "Cc1cc(C(=O)CN2C(=O)c3ccccc3S2(=O)=O)c(C)n1C(C)C"
  class_assignment: "inactive"
- compound: "O=C(NNc1ccccc1)C(=O)NNc1ccccc1"
  class_assignment: "active"
- compound: "O=C(N/N=C/c1ccc(O)cc1O)c1ccc(CN2C(=O)c3cccc4cccc2c34)cc1"
  class_assignment: "active"
- compound: "Cc1nc2cc(N3CCN(C)CC3)c(NC(=O)Cc3ccccc3)cc2c(=O)n1Cc1ccccc1"
  class_assignment: "inactive"
- compound: "COc1cc(/C=C2\\CC(C(C)(C)C)C/C(=C\\c3cc(OC)c(OC)c(OC)c3)C2=O)cc(OC)c1OC (stereo not given)"
  class_assignment: "inactive"
- compound: "O=C(Nc1ccc([N+](=O)[O-])cc1)Nc1ccc(OC(F)F)c(Cl)c1"
  class_assignment: "active"
- compound: "CCOC(=O)c1cccc(NS(=O)(=O)c2ccc(NC(C)=O)cc2)c1"
  class_assignment: "active"
- compound: "O=C(Nc1ccc(N2CCN(C(=O)c3ccco3)CC2)c(Cl)c1)c1cc2ccccc2o1"
  class_assignment: "inactive"
- compound: "CN(Cc1ccccc1)C1=CC(=[N+]2CCCCC2)CC(C)(C)C1"
  class_assignment: "active"
- compound: "COc1ccc(C[C@H]2COC(=O)[C@@H]2Cc2ccc(OC3OC(CO)C(O)C(O)C3O)c(OC)c2)cc1OC (stereo not given in full)"
  class_assignment: "active"
- compound: "COc1cccc(N2CCN(c3ncnc4c3[nH]c3ccc(F)cc34)CC2C)c1 (stereo not given)"
  class_assignment: "active"
- compound: "COc1cccc(-c2nnc3n2N=C(C(C)(C)C)CS3)c1"
  class_assignment: "active"
- compound: "COc1ccc(NC(=O)CN(C)C(=O)C2(c3ccccc3)CCCC2)cc1"
  class_assignment: "inactive"
- compound: "Cc1nn(-c2ccccc2)c(C)c1NC(=O)COC(=O)C1CC(=O)N(CCc2ccccc2)C1 (stereo not given)"
  class_assignment: "inactive"
- compound: "CN(Cc1ccc(F)cc1)C(=O)c1cccc(S(=O)(=O)N2CCN(c3ccccc3)CC2)c1"
  class_assignment: "inactive"
- compound: "O=C(Nc1nc(-c2ccccc2)cs1)c1ccc(N2CCOCC2)c([N+](=O)[O-])c1"
  class_assignment: "active"
- compound: "O=C(NCc1ccccc1)C(c1ccccc1)N(Cc1cccs1)C(=O)c1cnccn1 (stereo not given)"
  class_assignment: "inactive"
- compound: "CC(C)c1ccc2c(c1)C(N1CCN(C)CC1)Cc1cccnc1S2 (stereo not given)"
  class_assignment: "inactive"
- compound: "CN(C(=O)COc1ccccc1C(=O)NCCOc1ccccc1)c1ccccc1"
  class_assignment: "active"

---

protocol: VP16 transactivation inhibitors, counter-screen for SRC1 inhibitor project, cell-based, luminescence, high throughput (AID 588824)
condition: cell-based VP16 transactivation luciferase luminescence; at 3.6 µM; stronger effect = higher value
recorded_endpoint: inhibition (%)

- molecule: "Cc1cc(=O)oc2cc(OCc3ccc(C(=O)N4CCN(c5ccc([N+](=O)[O-])cc5)CC4)cc3)ccc12"
  recorded_endpoint: "inhibition"
  result_value: -3.02
- molecule: "O=C(Nc1nc(-c2ccccc2)cs1)c1ccc2c(=O)n3c(nc2c1)CCCCC3"
  recorded_endpoint: "inhibition"
  result_value: 30.9
- molecule: "Cc1ccc(C(=O)CN2C(=O)c3ccccc3S2(=O)=O)cc1"
  recorded_endpoint: "inhibition"
  result_value: 41.4
- molecule: "COc1ccccc1NC(=S)NN=C(C)c1ccccn1"
  recorded_endpoint: "inhibition"
  result_value: 64
- molecule: "CCN(CC(=O)Nc1c(F)cccc1F)C(=O)/C=C/c1ccc(S(=O)(=O)N2CCCCCC2)cc1"
  recorded_endpoint: "inhibition"
  result_value: 6.23
- molecule: "N=c1c2c(-c3ccccc3)c(-c3ccccc3)n(Cc3ccccc3)c2ncn1CCO"
  recorded_endpoint: "inhibition"
  result_value: 57.8
- molecule: "COc1ccc(/C=C2\\SC(=O)N(CCCC(=O)Nc3cc(Cl)ccc3C(=O)O)C2=O)cc1"
  recorded_endpoint: "inhibition"
  result_value: 70.3
- molecule: "O=c1ccc2c(ccc3ncccc32)o1"
  recorded_endpoint: "inhibition"
  result_value: 8.67
- molecule: "O=C(c1ccccc1)C1CCN(C(=O)c2cccs2)CC1"
  recorded_endpoint: "inhibition"
  result_value: -0.27
- molecule: "O=C(Nc1scc(-c2ccc(Br)cc2)c1C(=O)O)c1ccccc1F"
  recorded_endpoint: "inhibition"
  result_value: 10.7
- molecule: "O=C(Nc1ccc(F)cc1F)c1c(C(F)(F)F)ccnc1Oc1cccc(C(F)(F)F)c1"
  recorded_endpoint: "inhibition"
  result_value: -3.8
- molecule: "O=C(NC(=S)Nc1ccc(N2CCN(C(=O)c3ccccc3)CC2)cc1)c1cccs1"
  recorded_endpoint: "inhibition"
  result_value: 14.3
- molecule: "Cc1sc2ncnc(N3CCC(C(=O)N(C)CC(=O)Nc4cccc(F)c4)CC3)c2c1C"
  recorded_endpoint: "inhibition"
  result_value: 22.7
- molecule: "CN=c1scc(-c2ccccc2F)n1/N=C/c1ccc[nH]1"
  recorded_endpoint: "inhibition"
  result_value: 75.6
- molecule: "CN(C)c1ccc(Nc2ncnc3ccc(Br)cc23)cc1"
  recorded_endpoint: "inhibition"
  result_value: 20.2
- molecule: "COc1ccc(-c2cn(-c3ccc(OC)cc3)c3[n+]2-c2ccccc2CC3)cc1"
  recorded_endpoint: "inhibition"
  result_value: 59.9
- molecule: "Cc1ccc2nc(C(F)(F)F)c(C#N)c(N)c2c1"
  recorded_endpoint: "inhibition"
  result_value: 2.5
- molecule: "Nc1ccc(Cn2ccc3c4c(N)nc(N)nc4ccc32)cc1"
  recorded_endpoint: "inhibition"
  result_value: 36.9
- molecule: "O=C(CCl)N1N=C(c2ccco2)CC1c1cccs1 (configuration not stated)"
  recorded_endpoint: "inhibition"
  result_value: 21.7
- molecule: "Cc1cc(C)nc(-n2ncc(C#N)c2N)n1"
  recorded_endpoint: "inhibition"
  result_value: 5.06
- molecule: "CCn1c(Oc2ccccc2C)nc2c1c(=O)n(C)c(=O)n2C"
  recorded_endpoint: "inhibition"
  result_value: 30.6
- molecule: "Cc1cccc(NC(=O)CSCC(=O)N2CCN(Cc3ccc4c(c3)OCO4)CC2)c1"
  recorded_endpoint: "inhibition"
  result_value: 1.12

Value source: PubChem BioAssay
